Entries and their pKd values follow.
Biological target: T1, TrnD (Bacillus thuringiensis, fluorescently labeled (in the MST of Fig. 5D only))
T1 chain: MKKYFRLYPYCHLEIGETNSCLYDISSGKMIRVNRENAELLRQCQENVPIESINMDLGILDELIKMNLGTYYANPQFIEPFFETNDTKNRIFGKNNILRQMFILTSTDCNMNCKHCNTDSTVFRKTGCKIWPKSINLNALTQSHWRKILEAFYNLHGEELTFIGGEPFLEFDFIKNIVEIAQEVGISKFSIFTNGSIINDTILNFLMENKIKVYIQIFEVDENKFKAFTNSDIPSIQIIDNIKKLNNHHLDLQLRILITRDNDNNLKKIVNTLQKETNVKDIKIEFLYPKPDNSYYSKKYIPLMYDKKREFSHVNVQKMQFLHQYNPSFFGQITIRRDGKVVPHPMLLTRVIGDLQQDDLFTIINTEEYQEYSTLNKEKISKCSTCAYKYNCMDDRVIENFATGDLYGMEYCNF
Test: MST
Interpret pKd as the negative base-10 log of the concentration measured in mol/L.

| binder | reported |
| --- | --- |
| MEVLNKQNVNIIPESEEVGGWVACVGACGTVCLASGGVGTEFAAASYFL [TrnB] | 5.68 |

Ask: Query (binder): MEVMNNALITKVDEEIGGNAACVIGCIGSCVISEGIGSLVGTAFTLG [TrnA] ; field requested: pKd
Reply: 5.35
